test system: HELA; assay: cells; type: cell-based; details: HELA, 48 hours exposure, SRB

{"columns": ["compound", "TGI, Molar"],
 "data": [
  ["C=COC(=O)Oc1c(C)c2c(c3c1[C@H]1SC[C@]4(NCCC5c6ccccc6NC54)C(=O)OC[C@@H]3N3C1[C@H]1c4c(cc(C)c(OC)c4OC(=O)OC=C)C[C@@H]([C@@H]3C#N)N1C)OCO2 (stereo partly shown)", "6.03E−08"],
  ["COc1c(C)cc2c(c1O)[C@@H]1C3[C@@H]4SC[C@]5(C(=O)COC[C@@H](c6c7c(c(C)c(OC(C)=O)c64)OCO7)N3[C@@H](C#N)[C@H](C2)N1C)c1[nH]c2ccccc2c1CCN5C (stereo partly shown)", "3.10E−07"],
  ["COc1c(C)cc2c(c1O)[C@@H]1C3[C@@H]4SC[C@]5(NCCc6c5[nH]c5ccccc65)C(=O)COC[C@@H](c5c6c(c(C)c(OC(=O)OC(C)(C)C)c54)OCO6)N3[C@@H](C#N)[C@H](C2)N1C (stereo partly shown)", "1.46E−07"],
  ["COc1c(C)cc2c(c1O)[C@@H]1C3[C@@H]4SC[C@]5(NCCc6c5[nH]c5ccccc65)C(=O)COC[C@@H](c5c6c(c(C)c(OC(=O)C(F)(F)C(F)(F)C(F)(F)F)c54)OCO6)N3[C@@H](C#N)[C@H](C2)N1C (stereo partly shown)", "4.85E−08"]
]}

###

test system: NRK-52E, normal rat kidney cells; conditions: 24 h
Overview of recorded Kidney for various compounds

{"columns": ["compound", "Kidney"],
 "data": [
  ["C=COC(=O)Oc1c(OC)c(C)cc2c1[C@@H]1C3[C@@H]4SC[C@]5(NCCc6c5[nH]c5ccccc65)C(=O)COC[C@@H](c5c6c(c(C)c(OC(C)=O)c54)OCO6)N3[C@@H](O)[C@H](C2)N1C (stereo partly drawn)", "3.15E−08"],
  ["COc1c(C)cc2c(c1O)[C@@H]1C3[C@@H]4SC[C@]5(C(=O)COC[C@@H](c6c7c(c(C)c(OC(C)=O)c64)OCO7)N3[C@@H](O)[C@H](C2)N1C)c1[nH]c2ccccc2c1CCN5C (stereo partly drawn) [Compound 40]", "2.95E−08"],
  ["COc1c(C)cc2c(c1O)[C@@H]1C3[C@@H]4SC[C@]5(C(=O)COC[C@@H](c6c7c(c(C)c(OC(C)=O)c64)OCO7)N3[C@@H](O)[C@H](C2)N1C)c1[nH]c2ccccc2c1CCN5C (stereo partly drawn) [Compound 39]", "9.88E−05"]
]}

###

Documented IC (TGI) across a set of compounds
test system: K562; assay: cells; type: cell-based; settings: Homo sapiens, K562, 48 h, K562, 48 hours exposure, SRB
readoutName: IC (TGI)

{"columns": ["compound", "readoutName", "dataValue"],
 "data": [
  ["COc1c(C)cc2c(c1O)[C@@H]1C3[C@@H]4SC[C@]5(NC(C)Cc6c5[nH]c5ccc(O)cc65)C(=O)COC[C@@H](c5c6c(c(C)c(OC(C)=O)c54)OCO6)N3[C@@H](O)[C@H](C2)N1C (stereo partly shown)", "IC (TGI)", "1.36 nM"],
  ["COc1c(C)cc2c(c1O)[C@@H]1C3[C@@H]4SC[C@]5(NCCc6c5[nH]c5ccc(F)cc65)C(=O)COC[C@@H](c5c6c(c(C)c(OC(C)=O)c54)OCO6)N3[C@@H](O)[C@H](C2)N1C (stereo partly shown)", "IC (TGI)", "2.67 nM"],
  ["COc1c(C)cc2c(c1O)[C@@H]1C3[C@@H]4SC[C@]5(NCCc6c5[nH]c5ccccc65)C(=O)COC[C@@H](c5c6c(c(C)c(OC(=O)C(F)(F)C(F)(F)C(F)(F)F)c54)OCO6)N3[C@@H](C#N)[C@H](C2)N1C (stereo partly shown)", "IC (TGI)", "46.2 nM"],
  ["COc1c(C)cc2c(c1O)[C@@H]1C3[C@@H]4SC[C@]5(NCCc6c5[nH]c5c(C)cccc65)C(=O)COC[C@@H](c5c6c(c(C)c(OC(C)=O)c54)OCO6)N3[C@@H](O)[C@H](C2)N1C (stereo partly shown)", "IC (TGI)", "9.92 nM"]
]}
